Sourced from patent US20160046618A1

# measurementTarget: Recombinant Cat D (Homo sapiens (Human), UniProt P07339)
# Sequence (P07339 65-412): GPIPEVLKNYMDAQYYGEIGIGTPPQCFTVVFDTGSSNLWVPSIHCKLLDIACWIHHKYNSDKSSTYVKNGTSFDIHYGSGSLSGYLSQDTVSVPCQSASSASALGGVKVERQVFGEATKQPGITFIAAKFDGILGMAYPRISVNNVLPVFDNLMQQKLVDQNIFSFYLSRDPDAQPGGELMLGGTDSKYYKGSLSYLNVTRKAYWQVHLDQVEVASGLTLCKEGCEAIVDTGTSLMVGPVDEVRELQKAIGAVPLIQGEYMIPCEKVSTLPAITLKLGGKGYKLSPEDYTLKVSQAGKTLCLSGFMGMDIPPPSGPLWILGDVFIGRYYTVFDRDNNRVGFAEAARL
# protocolNotes: In vitro enzymatic Cathepsin D (Cat D) FRET assay
# Assay type: biochemical
# conditionParameters: Cathepsin D FRET enzyme assay; read-out: IC50 IP (μM) CatD
metricName: IC50

COc1cnc(C(=O)Nc2ccc(F)c([C@@]3(CF)N=C(N)S[C@@]4(CO)C[C@H]43)c2)c(C)n1 [Example 75]
> 400 µM
N#Cc1ccc(C(=O)Nc2cc(F)c(F)c([C@@]3(CF)N=C(N)S[C@H]4C[C@H]43)c2)nc1 [Example 11]
> 400 µM
NC1=N[C@](CF)(c2cc(Nc3nccc4nc(OCc5ncco5)cnc34)ccc2F)C2C[C@@H]2S1 (stereo in doubt) [Example 56]
> 400 µM

----------
# measurementTarget: Recombinant Cat D (Homo sapiens (Human), UniProt P07339)
# protocolNotes: In vitro enzymatic Cathepsin D (Cat D) FRET assay
# Format: biochemical
# conditionParameters: Cathepsin D FRET enzyme assay; read-out: IC50 IP (μM) CatD
# IC50 values compiled below
metricName: IC50

NC1=N[C@](CF)(c2cc(NC(=O)c3ccc(Cl)cn3)ccc2F)[C@@H]2C[C@]2(CF)S1 [Example 41]
> 400 µM
N#Cc1cnc2c(Nc3ccc(F)c([C@@]4(CF)N=C(N)S[C@@]5(CO)C[C@H]54)c3)ncnc2c1 [Example 80]
> 400 µM
COC[C@]12C[C@H]1[C@@](CF)(c1cc(Nc3nccc4cc(C#N)cnc34)cc(F)c1F)N=C(N)S2 [Example 47]
> 400 µM
C[C@]1(c2cc(Nc3nccc4cc(C#N)cnc34)cc(F)c2F)N=C(N)S[C@H]2C[C@H]21 [Example 21]
> 133 µM
N#Cc1cnc2c(Nc3ccc(F)c([C@@]4(CF)N=C(N)S[C@@]5(CO)C[C@H]54)c3)nccc2c1 [Example 50]
> 133 µM
Cc1nc(OCC(F)(F)F)cnc1C(=O)Nc1ccc(F)c([C@@]2(CF)N=C(N)S[C@@]3(CO)C[C@H]32)c1 [Example 79]
> 400 µM
C[C@]1(c2cc(Nc3nccc4cc(C#N)cnc34)cc(F)c2F)N=C(N)S[C@@]2(CO)C[C@H]21 [Example 54]
> 44.4 µM

----------
Below: a set of entries, each annotated with reported IC50.
# measurementTarget: Recombinant Cat D (Homo sapiens (Human), UniProt P07339)
# protocolNotes: In vitro enzymatic Cathepsin D (Cat D) FRET assay
# Assay type: biochemical
# conditionParameters: Cathepsin D FRET enzyme assay; read-out: IC50 IP (μM) CatD
metricName: IC50 (µM)

NC1=N[C@](CF)(c2cc(Nc3nccc4nc(C(F)(F)F)cnc34)ccc2F)C2C[C@@H]2S1 (stereo in doubt)
2810
C[C@]1(c2cc(Nc3nccc4cc(Cl)cnc34)cc(F)c2F)N=C(N)S[C@@]2(CO)C[C@H]21
958
COC[C@]12C[C@H]1[C@@](CF)(c1cc(NC(=O)c3ccc(Cl)cn3)ccc1F)N=C(N)S2
2810

----------
# measurementTarget: Recombinant Cat D (Homo sapiens (Human), UniProt P07339)
# protocolNotes: In vitro enzymatic Cathepsin D (Cat D) FRET assay
# Assay type: biochemical
# conditionParameters: Cathepsin D FRET enzyme assay; read-out: IC50 IP (μM) CatD
metricName: IC50 (µM)

COc1cnc(C(=O)Nc2ccc(F)c([C@@]3(CF)N=C(N)S[C@H]4C[C@H]43)c2)cn1
1840
COc1cnc(C(=O)Nc2cc(F)c(F)c([C@@]3(C)N=C(N)S[C@H]4C[C@H]43)c2)cn1
719
C#CCOc1cnc(C(=O)Nc2cc(F)c(F)c([C@@]3(CF)N=C(N)S[C@H]4C[C@H]43)c2)cn1
47.1
C#CCOc1cnc(C(=O)Nc2ccc(F)c([C@@]3(CF)N=C(N)S[C@@]4(CO)C[C@H]43)c2)cn1
349
